Listed next: entries and their corresponding residual activity.
# experimental.system: AMP-activated protein kinase, AMPK (Homo sapiens) (UniProt P54646+O43741+P54619+Q9UGJ0+Q9Y478+Q13131+Q9UGI9)
# condition: at 10 µM
Give your result in % as a bare value.

// solved cases for residual activity follow
O=c1[nH]c2ccccc2n1C1CCN(Cc2ccc(-c3nc4cc5[nH]cnc5cc4nc3-c3ccccc3)cc2)CC1 ... 79
O=[N+]([O-])/C=C/c1ccc2c(c1)OCO2 ... 78

Could you now consider this next molecule?
Query :: Fill in the blank: the reported residual activity of "COc1cc2ncnc(Nc3ccc(OCc4ccccc4)cc3)c2cc1OC" is ____.
Result :: 82
